Entry source: ChEMBL document CHEMBL1149196

Recorded Ratio by entry
# Target System: Monoamine transporters; Norepinephrine & serotonin (Rattus norvegicus) (UniProt P31652+Q9WTR4)
# Assay Remarks: Ratio of affinity for Norepinephrine transporter to that of Serotonin transporter
# Type: protein assay
In your answer, state the number alone without any accompanying words.

{"columns": ["Compound", "Ratio"],
 "data": [
  ["CCC[C@H]1CN(C)CC[C@@H]1c1ccc(Cl)cc1", 0.029]
]}

Tell me the measured Ratio of `CNC(=O)C[C@H]1CN(C)CC[C@@H]1c1ccc(Cl)cc1` , please.
0.11

---

Recorded measurements of pKi, one per entry
# Target System: Sodium-dependent serotonin transporter (Rattus norvegicus)
# Sequence (P31652 whole entry): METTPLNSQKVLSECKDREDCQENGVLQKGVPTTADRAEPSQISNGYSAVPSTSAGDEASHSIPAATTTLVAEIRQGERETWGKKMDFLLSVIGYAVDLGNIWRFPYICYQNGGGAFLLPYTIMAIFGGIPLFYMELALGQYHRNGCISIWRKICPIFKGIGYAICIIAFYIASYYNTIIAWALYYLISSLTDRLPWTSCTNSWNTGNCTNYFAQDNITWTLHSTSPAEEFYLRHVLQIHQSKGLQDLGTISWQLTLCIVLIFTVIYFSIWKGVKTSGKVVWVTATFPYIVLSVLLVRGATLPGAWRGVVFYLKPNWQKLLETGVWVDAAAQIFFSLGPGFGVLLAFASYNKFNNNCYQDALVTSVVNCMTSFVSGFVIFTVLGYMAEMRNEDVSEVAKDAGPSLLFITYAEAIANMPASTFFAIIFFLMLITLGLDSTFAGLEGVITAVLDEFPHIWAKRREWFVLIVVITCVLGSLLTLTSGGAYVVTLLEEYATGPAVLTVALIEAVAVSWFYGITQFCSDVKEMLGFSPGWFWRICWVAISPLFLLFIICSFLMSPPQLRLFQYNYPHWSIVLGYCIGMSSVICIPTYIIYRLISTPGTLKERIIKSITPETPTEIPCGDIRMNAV
# Assay Remarks: Ability to inhibit high affinity uptake of [3H]-5-HT at Serotonin transporter (SERT) using rat midbrain
# Type: tissue-based
Convention used: pKi is expressed as -log10 of the molar concentration.

{"columns": ["Compound", "pKi"],
 "data": [
  ["CN1CC[C@H](c2ccc(Cl)cc2)[C@@H](C(=O)OC(C)(C)C)C1", 5.24],
  ["CN1CC[C@H](c2ccc(Cl)cc2)[C@@H](CC(=O)NCc2ccccc2)C1", 6.72]
]}

So what's the measured pKi for this one? `CN1CC[C@H](c2ccc(Cl)cc2)[C@@H](C(=O)O)C1`
3.88

Value lookup for pKi; key = `CN1CC[C@H](c2ccc(Cl)cc2)[C@@H](CCC(=O)Nc2ccccc2)C1`
6.45

Look at this compound and give its reported pKi. `CN1CC[C@H](c2ccc(Cl)cc2)[C@@H](CCC(=O)NC23CC4CC(CC(C4)C2)C3)C1`
6.23

---

# Target System: Monoamine transporters; Norepinephrine & serotonin (Rattus norvegicus) (UniProt P31652+Q9WTR4)
# Assay Remarks: Ratio of affinity for Norepinephrine transporter to that of Serotonin transporter
# Type: protein assay
As shown below, each of these molecules has a reported Ratio value.
Form: value (number only, do not type unit).

Examples with their reported Ratio follow.
{"columns": ["Smiles Text", "Assay Metric", "Reported Measurement"],
 "data": [
  ["CCOC(=O)C[C@H]1CN(C)CC[C@@H]1c1ccc(Cl)cc1", "Ratio", 0.53],
  ["CN1CC[C@H](c2ccc(Cl)cc2)[C@@H](C(=O)O)C1", "Ratio", 2.2],
  ["CN1CC[C@H](c2ccc(Cl)cc2)[C@@H](CC(=O)N(C)Cc2ccccc2)C1", "Ratio", 0.49]
]}

Entry under review: `CN1CC[C@H](c2ccc(Cl)cc2)[C@@H](COC(=O)c2ccccc2)C1` . Reported Ratio?
1.3

State the recorded Ratio for this entry: `CN1CC[C@H](c2ccc(Cl)cc2)[C@@H](CCC(=O)Nc2ccccc2)C1`
0.16

---

# Target System: Sodium-dependent dopamine transporter (Rattus norvegicus)
# Sequence (P23977 whole entry): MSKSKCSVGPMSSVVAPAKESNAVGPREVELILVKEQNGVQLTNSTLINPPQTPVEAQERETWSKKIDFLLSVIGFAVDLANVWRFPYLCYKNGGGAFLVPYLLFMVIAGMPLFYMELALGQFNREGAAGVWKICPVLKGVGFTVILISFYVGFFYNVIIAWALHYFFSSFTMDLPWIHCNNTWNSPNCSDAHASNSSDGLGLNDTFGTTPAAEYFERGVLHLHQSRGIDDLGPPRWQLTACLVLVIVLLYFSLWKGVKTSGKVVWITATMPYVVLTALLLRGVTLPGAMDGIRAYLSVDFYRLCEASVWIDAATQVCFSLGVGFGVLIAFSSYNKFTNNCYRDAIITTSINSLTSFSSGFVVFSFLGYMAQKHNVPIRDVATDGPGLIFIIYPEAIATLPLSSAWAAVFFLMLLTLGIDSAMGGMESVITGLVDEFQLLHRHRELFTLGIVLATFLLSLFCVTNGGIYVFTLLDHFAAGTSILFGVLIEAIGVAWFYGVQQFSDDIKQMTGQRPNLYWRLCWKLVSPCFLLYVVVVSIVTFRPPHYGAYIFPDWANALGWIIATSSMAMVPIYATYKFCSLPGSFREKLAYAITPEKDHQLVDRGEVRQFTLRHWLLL
# Assay Remarks: Ability to inhibit high affinity uptake of [3H]DA at Dopamine transporter (DAT) using rat brain striatum
Assay Metric: pKi
Expect pKi as a plain number equal to -log10 of the molar concentration.

Answered examples (2):
{"columns": ["Molecule", "pKi"],
 "data": [
  ["CN1CC[C@H](c2ccc(Cl)cc2)C(C(=O)N(C)C)C1 (stereo not given in full)", 5.67],
  ["CN1CC[C@H](c2ccc(Cl)cc2)[C@@H](C(=O)OC(C)(C)C)C1", 6.50]
]}

Now take the following molecule into account.
Consider the molecule shown here: `CCOC(=O)C[C@H]1CN(C)CC[C@@H]1c1ccc(Cl)cc1` What is its recorded pKi?
7.10
